Data origin: patent US11964988B2

molecular target: RET kinase Wild Type (Homo sapiens, UniProt P07949); assay: biochemical;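 note: HTRF kinase activity assay on RET enzyme, 1 h reaction at 22 °C, dual-wavelength readout as percent of control, DMSO-only wells as 100%, pre-quenched reactions as 0%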
Sequence (P07949 29-1114): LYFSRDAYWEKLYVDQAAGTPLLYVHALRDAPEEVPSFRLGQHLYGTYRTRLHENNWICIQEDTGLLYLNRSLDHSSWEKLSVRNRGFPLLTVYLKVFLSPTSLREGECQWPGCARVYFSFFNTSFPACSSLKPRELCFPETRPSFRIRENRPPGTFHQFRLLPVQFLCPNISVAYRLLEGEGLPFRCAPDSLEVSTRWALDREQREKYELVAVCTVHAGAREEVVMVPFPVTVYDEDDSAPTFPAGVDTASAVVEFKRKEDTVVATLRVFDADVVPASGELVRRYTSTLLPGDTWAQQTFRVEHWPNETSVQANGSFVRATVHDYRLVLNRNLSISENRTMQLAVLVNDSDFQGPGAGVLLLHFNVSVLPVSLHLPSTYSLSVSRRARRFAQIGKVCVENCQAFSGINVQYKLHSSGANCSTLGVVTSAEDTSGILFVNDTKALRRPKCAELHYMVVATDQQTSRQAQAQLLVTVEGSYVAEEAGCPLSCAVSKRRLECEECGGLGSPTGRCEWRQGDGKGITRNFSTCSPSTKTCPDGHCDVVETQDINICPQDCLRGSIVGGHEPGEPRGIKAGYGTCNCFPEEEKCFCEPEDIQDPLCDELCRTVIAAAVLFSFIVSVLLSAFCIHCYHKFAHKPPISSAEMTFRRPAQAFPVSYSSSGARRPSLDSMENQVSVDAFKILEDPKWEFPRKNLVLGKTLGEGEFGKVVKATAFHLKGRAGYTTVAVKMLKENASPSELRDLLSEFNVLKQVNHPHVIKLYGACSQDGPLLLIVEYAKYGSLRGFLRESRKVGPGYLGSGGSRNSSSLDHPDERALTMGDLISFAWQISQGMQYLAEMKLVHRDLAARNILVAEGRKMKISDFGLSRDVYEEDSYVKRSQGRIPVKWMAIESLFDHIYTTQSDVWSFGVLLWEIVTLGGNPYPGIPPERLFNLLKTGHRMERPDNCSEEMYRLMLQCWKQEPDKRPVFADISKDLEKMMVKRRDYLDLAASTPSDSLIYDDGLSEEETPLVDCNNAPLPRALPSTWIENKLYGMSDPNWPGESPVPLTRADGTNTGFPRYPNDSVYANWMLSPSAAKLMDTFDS
Here, each record is paired with measured IC50 data.
measured.endpoint: IC50 (µM)

INSERT INTO assay_data (compound, measured_target, measured_endpoint, val) VALUES
  ('CC(C)n1c2c(c3c(N)ncnc31)-c1cc3ccc(C(=O)Nc4cnn(C)c4)cc3n1CCC2', 'RET kinase Wild Type (Homo sapiens, UniProt P07949)', 'IC50', 1.26),
  ('Nc1ncnc2c1c1c(n2C2CCC(O)C2)CCC(=O)c2c-1noc2C1CC1 (mixture of isomers) [Example 128, 2,2,2-trifluoroacetate]', 'RET kinase Wild Type (Homo sapiens, UniProt P07949)', 'IC50', 0.088),
  ('CC(C)n1c2c(c3c(N)ncnc31)-c1ccc(C3CC3)cc1C(=O)NC2', 'RET kinase Wild Type (Homo sapiens, UniProt P07949)', 'IC50', 0.112);

* * *

biological target: G810R mutant RET kinase (Homo sapiens, UniProt P07949, G810R); assay: biochemical;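 note: HTRF KinEASE-TK enzymatic assay with 1 nM recombinant RET G810R, 1 h at 22 °C, dual-wavelength ratiometric readout, 100% control without compound, 0% from pre-quenched reactions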
Sequence (P07949 29-1114 G810R): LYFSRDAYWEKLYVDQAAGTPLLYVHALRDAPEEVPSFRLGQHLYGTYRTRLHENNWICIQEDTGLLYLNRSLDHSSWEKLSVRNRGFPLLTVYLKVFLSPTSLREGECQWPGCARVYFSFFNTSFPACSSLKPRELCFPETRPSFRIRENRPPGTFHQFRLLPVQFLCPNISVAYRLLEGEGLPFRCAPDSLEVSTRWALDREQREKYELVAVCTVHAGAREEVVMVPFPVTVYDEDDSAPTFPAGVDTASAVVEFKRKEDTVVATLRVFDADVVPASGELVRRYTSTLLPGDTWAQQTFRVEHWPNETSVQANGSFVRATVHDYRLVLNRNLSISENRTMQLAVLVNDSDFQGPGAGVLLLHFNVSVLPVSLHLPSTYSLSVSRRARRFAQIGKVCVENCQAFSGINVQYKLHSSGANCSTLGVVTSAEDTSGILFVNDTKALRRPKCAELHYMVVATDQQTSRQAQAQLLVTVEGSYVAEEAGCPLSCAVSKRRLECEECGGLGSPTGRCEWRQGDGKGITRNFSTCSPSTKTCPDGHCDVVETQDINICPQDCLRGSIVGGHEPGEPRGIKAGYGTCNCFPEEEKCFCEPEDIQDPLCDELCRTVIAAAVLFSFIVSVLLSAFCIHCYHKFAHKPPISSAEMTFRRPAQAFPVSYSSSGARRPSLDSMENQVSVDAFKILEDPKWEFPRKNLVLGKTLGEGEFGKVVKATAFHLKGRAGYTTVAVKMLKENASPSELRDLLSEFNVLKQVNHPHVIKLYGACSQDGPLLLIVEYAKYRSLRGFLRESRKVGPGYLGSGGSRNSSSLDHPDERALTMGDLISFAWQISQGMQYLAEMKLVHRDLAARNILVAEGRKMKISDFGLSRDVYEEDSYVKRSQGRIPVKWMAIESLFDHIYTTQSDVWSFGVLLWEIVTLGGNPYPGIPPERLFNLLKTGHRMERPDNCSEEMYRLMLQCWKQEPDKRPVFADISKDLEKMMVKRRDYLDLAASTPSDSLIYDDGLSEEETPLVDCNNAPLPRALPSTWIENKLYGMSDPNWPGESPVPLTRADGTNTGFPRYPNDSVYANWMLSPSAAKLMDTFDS
pIC50: −log10 of the molar value.
measured.endpoint: pIC50

INSERT INTO assay_data (compound, measured_target, measured_endpoint, val) VALUES
  ('CC(C)n1c2c(c3c(N)ncnc31)-c1cc3ccc(C(=O)NC4CC4)cc3n1C(=O)NC2 [Example 72]', 'G810R mutant RET kinase (Homo sapiens, UniProt P07949, G810R)', 'pIC50', 5.51),
  ('Nc1ncnc2c1c1c(n2C2CCCC2)CC[C@@H](O)c2c-1noc2C1CC1 (single isomer, unassigned) [Example 125]', 'G810R mutant RET kinase (Homo sapiens, UniProt P07949, G810R)', 'pIC50', 7.39),
  ('CC(C)n1c2c(c3c(N)ncnc31)-c1noc(C3CC3)c1[C@@H](O)[C@H](C)C2 (relative stereo) [Example 62]', 'G810R mutant RET kinase (Homo sapiens, UniProt P07949, G810R)', 'pIC50', 7.02),
  ('Nc1ncnc2c1c1c(n2C2CCCC2)CCC(O)c2c-1noc2C1CC1 (centres unmarked) [Example 120]', 'G810R mutant RET kinase (Homo sapiens, UniProt P07949, G810R)', 'pIC50', 7.13),
  ('CC(C)n1c2c(c3c(N)ncnc31)-c1noc(C3CC3)c1C(=O)N(CCc1ccccc1)C2 [Example 8]', 'G810R mutant RET kinase (Homo sapiens, UniProt P07949, G810R)', 'pIC50', 7.02),
  ('CC(C)n1c2c(c3c(N)ncnc31)-c1ccc(Cl)cc1C(=O)NC2 [Example 45]', 'G810R mutant RET kinase (Homo sapiens, UniProt P07949, G810R)', 'pIC50', 6.56),
  ('CC(C)n1c2c(c3c(N)ncnc31)-c1ccc(Cl)c(F)c1C(=O)NC2 [Example 50]', 'G810R mutant RET kinase (Homo sapiens, UniProt P07949, G810R)', 'pIC50', 5.59),
  ('CNC(=O)c1ccc2c(Cl)c3n(c2c1)C(=O)NCc1c-3c2c(N)ncnc2n1C(C)C [Example 74]', 'G810R mutant RET kinase (Homo sapiens, UniProt P07949, G810R)', 'pIC50', 5.68);

* * *

molecular target: RET kinase V804M (Homo sapiens, UniProt P07949, V804M); assay: RET Enzyme Assay (CisBio HTRF KinEASE-TK), V804M; format: biochemical; conditions: read-out: RET V804M Enz FRET IC50
Sequence (P07949 29-1114 V804M): as the sequence (P07949 29-1114 G810R) above, with V776M, R782G counted along it
pIC50: −log10 of the molar value.
measured.endpoint: pIC50

INSERT INTO assay_data (compound, val) VALUES
  ('CC(C)n1c2c(c3c(N)ncnc31)-c1noc(C3CC3)c1C(=O)N(c1cnn(C)c1)C2', 6.16),
  ('CC(C)n1c2c(c3c(N)ncnc31)-c1noc(C3CC3)c1[C@H](O)[C@@H](C)C2 (single isomer, unassigned)', 6.79),
  ('CC(C)n1c2c(c3c(N)ncnc31)-c1noc(C3CC3)c1C(=O)N(CCN1CCS(=O)(=O)CC1)C2', 6.27),
  ('CC(C)n1c2c(c3c(N)ncnc31)-c1cc3ccc(C(=O)Nc4ccn(-c5ccccc5)n4)cc3n1CCC2', 5.54),
  ('CC(C)n1c2c(c3c(N)ncnc31)-c1noc(C3CC3)c1C(=O)NC2 [Example 19, 2,2,2-trifluoroacetate]', 6.69),
  ('Nc1ncnc2c1c1c(n2-c2ccccc2)CCC(O)c2c-1noc2C1CC1 (stereo not shown) [Example 118, 2,2,2-trifluoroacetate]', 7.00),
  ('Nc1ncnc2[nH]c3c(c12)-c1noc(C2CC2)c1C(=O)NC3 [Example 66, 2,2,2-trifluoroacetate]', 5.17);
